Tested on: T1, native CEMIP/KIAA1199 expressed on the surface of human cancer cells (human, UniProt Q8WUJ3 31-1361)
T1 construct: Endogenous CEMIP of MKN45 gastric and N2LA lung cancer cells in flow cytometry; The same entry is used for CEMIP on exosomes of brain tropic MDA-MB231 cells in the brain slice assay; also called native cell surface CEMIP/KIAA1199; CEMIP on MKN45 and N2LA cells
T1 sequence: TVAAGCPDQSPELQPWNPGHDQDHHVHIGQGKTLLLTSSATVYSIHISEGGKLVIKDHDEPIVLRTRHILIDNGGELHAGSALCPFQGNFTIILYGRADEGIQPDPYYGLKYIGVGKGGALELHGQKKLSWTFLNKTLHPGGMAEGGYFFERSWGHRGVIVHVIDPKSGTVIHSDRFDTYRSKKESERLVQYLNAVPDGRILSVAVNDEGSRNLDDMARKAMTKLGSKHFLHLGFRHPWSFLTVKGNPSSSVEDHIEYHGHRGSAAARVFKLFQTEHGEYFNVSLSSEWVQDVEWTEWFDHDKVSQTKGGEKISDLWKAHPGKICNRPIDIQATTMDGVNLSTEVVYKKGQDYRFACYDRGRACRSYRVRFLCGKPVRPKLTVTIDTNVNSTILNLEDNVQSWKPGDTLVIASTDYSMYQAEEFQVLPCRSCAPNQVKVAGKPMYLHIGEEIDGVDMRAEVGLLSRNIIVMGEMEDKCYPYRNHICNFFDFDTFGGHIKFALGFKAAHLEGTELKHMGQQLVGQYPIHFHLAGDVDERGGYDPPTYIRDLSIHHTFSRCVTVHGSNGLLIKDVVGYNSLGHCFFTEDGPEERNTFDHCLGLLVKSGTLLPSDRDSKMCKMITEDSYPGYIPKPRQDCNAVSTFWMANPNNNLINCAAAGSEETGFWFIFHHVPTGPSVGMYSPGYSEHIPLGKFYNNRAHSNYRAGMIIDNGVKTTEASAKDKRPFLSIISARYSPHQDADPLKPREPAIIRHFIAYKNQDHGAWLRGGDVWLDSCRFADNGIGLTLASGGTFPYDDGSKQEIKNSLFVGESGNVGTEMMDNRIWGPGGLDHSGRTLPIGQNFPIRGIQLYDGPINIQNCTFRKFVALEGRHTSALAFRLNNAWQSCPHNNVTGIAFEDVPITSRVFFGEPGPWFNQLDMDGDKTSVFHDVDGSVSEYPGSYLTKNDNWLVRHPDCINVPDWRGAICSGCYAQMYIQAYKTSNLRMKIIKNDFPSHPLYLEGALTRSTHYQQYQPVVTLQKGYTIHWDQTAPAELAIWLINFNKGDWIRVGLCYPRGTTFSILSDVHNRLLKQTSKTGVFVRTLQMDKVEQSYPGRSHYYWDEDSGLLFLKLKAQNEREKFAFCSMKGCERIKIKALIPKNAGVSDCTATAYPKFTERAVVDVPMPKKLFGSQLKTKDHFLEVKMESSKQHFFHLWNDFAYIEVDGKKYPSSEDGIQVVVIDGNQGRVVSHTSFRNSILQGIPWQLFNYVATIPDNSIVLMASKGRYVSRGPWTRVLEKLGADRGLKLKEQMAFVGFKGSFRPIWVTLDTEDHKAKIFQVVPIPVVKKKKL
Protocol description: flow cytometry on MKN45 cells
Experimental readout: binding result

* 12A12 (cAb5776) (antibody, mouse IgG1, kappa, V domains shown, Mouse monoclonal antibody from a hybridoma (supernatant, later purified)) VH: EVQLQQSGPELVKPGVSMKISCKASGYSFTAYTMNWVKQSHGENLEWIGLINPYNGGTTYNQKFKGKATLTVDKSSSTAYMELLSLTSEDSAVYYCASYDYGYAMDYWGQGTSVTVSS VL: DVLMTQTPLSLPVSLGDQASISCRSSQSIVHRSGNTYLEWYLQKPGQSPKLLIYKVSNRFSGVPDRFSGSGSGTDFTLKISRVEAEDLGVYYCFQGSHVPWTFGGGTKLEIKR | binds
* 12D02 (cAb5775) (antibody, mouse IgG1, kappa, V domains shown, Mouse monoclonal antibody from a hybridoma (supernatant, later purified)) VH: EVQLQQSGPELVKPGASMKISCKASGYSFTAYTMNWVKQSHGENLEWIGLINPYNGGTTYNQKFKGKATLTVDKSSSTAYMELLSLTSEDSAVYYCASYDYGYAMDYWGQGTSVTVSS VL: DVLMTQTPLSLPVSLGDQASISCRSSQSIVHRNGNTYLEWYLQKPGQSPKLLIYKVSNRFSGVPDRFSGSGSGTDFTLKISRVEAEDLGVYYCFQGSHVPWTFGGGTKLEIKR | binds
* 13G04 (cAb5778) (antibody, mouse IgG1, kappa, V domains shown, Mouse monoclonal antibody from a hybridoma (supernatant, later purified)) VH: EVHLQQSGPELVKPGASMKISCKASGYSFTAYTMNWVKQSHGKNLEWIGLINPYNGGTTYNQKFKGKATLTVDKSSSTAYMELLSLTSEDSAVYYCASYYGGRGWYFDVWGAGTSVTVSS VL: DIVLTQSPASLAVSLGQRATISCRASKSVSTSGYSYVHWYQQKPGQPPKLLIYLASNLESGVPARFSGSGSGTDFTLNIHPVEEEDAATYYCQNSRELPYTFGGGTKLEMKR | binds
